Tested on: Bx-PC3
procedure summary: MTT cytotoxicity assay, substances alone, Bx-PC3
Format: cell-based, human
recorded conditions: 50 µg/mL
Protocol: Suitable vehicle controls were also included. The effect of the treatments on cell viability was measured by the MTT assay as previously described. A higher than 30% reduction of cell viability was considered as a significant cytotoxic effect.
Where a name gives a salt, the structure may show the parent alone.
measurement type: inhibition of cell viability (%)
# output: bare number, implied unit %

Solved entries (count: 2):
C=C1CC[C@H]2O[C@]2(C)CC[C@@H]2[C@@H]1CC2(C)C [β-Caryophyllene oxide, β-caryophyllene oxide] : 30
C=C1CC/C=C(\C)CC[C@@H]2[C@@H]1CC2(C)C [β-Caryophyllene, β-caryophyllene] : 70

// below: inhibition of cell viability requested for another molecule
For reference, reported inhibition of cell viability for CNC(=O)c1cc(Oc2ccc(NC(=O)Nc3ccc(Cl)c(C(F)(F)F)c3)cc2)ccn1 [Sorafenib, sorafenib tosylate] stands at 70
